Test Protocol: chemical genetic growth profiling, strain panel (AID 1159580);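 also: tested at 20 µM; growth read once vehicle control cultures reached saturation at 30 °C; 1 = growth at the plate median or of vehicle wells; lower values mean less growth of the strain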
Study Conditions: S. cerevisiae deletion strains, growth OD, locus YJR075W, strain HOC1
Among all 5,500 compounds or so, about 2,000 (36%) were called active. About 18% were inconclusive and are not listed. Rule as the data show it: active = normalized growth mostly below about 0.91 (no sharp cut-off); inconclusive = no clear call, values can overlap the other calls; inactive = mostly above about 0.92. The list shows a part of the results.
Possible outcomes: Yes = active, No = inactive

{"columns": ["Record Smiles", "Category"],
 "data": [
  ["CC(=O)Oc1cc(OC(C)=O)c2c(c1)O[C@H](c1ccc(OC(C)=O)c(OC(C)=O)c1)[C@H](OC(C)=O)C2", "No"],
  ["NC(=O)c1ccc[n+]([C@@H]2O[C@H](COP(=O)([O-])OP(=O)(O)OC[C@H]3O[C@@H](n4cnc5c(N)ncnc54)[C@H](OP(=O)(O)O)[C@@H]3O)[C@@H](O)[C@H]2O)c1", "No"],
  ["O=C(O[C@@H]1Cc2c(O)cc(O)cc2O[C@@H]1c1cc(O)c(O)c(O)c1)c1cc(O)c(O)c(O)c1", "Yes"]
]}

----------
Test Protocol: chemical genetic growth profiling, strain panel (AID 1159580);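 also: tested at 20 µM; growth read once vehicle control cultures reached saturation at 30 °C; 1 = growth at the plate median or of vehicle wells; lower values mean less growth of the strain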
Study Conditions: S. cerevisiae deletion strains, growth OD, locus YOR070C, strain gyp1
Hit rate of the full screen: of about 5,500 compounds, about 2,000 (36%) were called active. Inconclusive results (about 18%) are left out. Rule as the data show it: active = normalized growth mostly below about 0.91 (no sharp cut-off); inconclusive = no clear call, values can overlap the other calls; inactive = mostly above about 0.92. The list shows a part of the results.
Possible outcomes: 1 = active, -1 = inactive

{"columns": ["Molecule", "Category"],
 "data": [
  ["O=C(O)CCCc1ccc(N(CCCl)CCCl)cc1", -1],
  ["CC(C)NCC(O)COc1cccc2[nH]ccc12 (stereo unspecified)", -1],
  ["CCOC(=O)n1ccn(C)c1=S", -1],
  ["OCC(O)CN1CCN(c2ccccc2)CC1 (stereo unspecified)", -1],
  ["CNC(=O)O/N=C(\\C)SC", -1],
  ["N[C@@H](Cc1ccc(N(CCCl)CCCl)cc1)C(=O)O", -1],
  ["CC[C@]1(O)CC2CN(CCc3c([nH]c4ccccc34)[C@@](C(=O)OC)(c3cc4c(cc3OC)N(C)[C@H]3[C@@](O)(C(=O)OC)[C@H](OC(C)=O)[C@]5(CC)C=CCN6CC[C@]43[C@@H]65)C2)C1 (stereo partly specified)", -1],
  ["O=C(c1ccc(OCCN2CCCCC2)cc1)c1c(-c2ccc(O)cc2)sc2cc(O)ccc12", -1],
  ["C[n+]1c2cc(N)ccc2cc2ccc(N)cc21", 1],
  ["CCCCCCCCCCC[C@@H](C[C@H]1OC(=O)[C@H]1CCCCCC)OC(=O)[C@@H](CC(C)C)NC=O", -1],
  ["CNCCC(Oc1ccc(C(F)(F)F)cc1)c1ccccc1 (stereo unspecified)", -1]
]}

----------
Test Protocol: chemical genetic growth profiling, strain panel (AID 1159580);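 also: tested at 20 µM; growth read once vehicle control cultures reached saturation at 30 °C; 1 = growth at the plate median or of vehicle wells; lower values mean less growth of the strain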
Study Conditions: S. cerevisiae deletion strains, growth OD, locus YPR119W, strain clb2, stronger effect = lower value
About 2,000 (36%) of roughly 5,500 compounds were called active. About 18% were inconclusive and are not listed. This is one part of the list.
Parameter normalized growth: see the listing below.

{"columns": ["Compound", "normalized growth"],
 "data": [
  ["O=C(OCC(O)CO)c1ccccc1Nc1ccnc2cc(Cl)ccc12 (stereo unspecified)", 0.99],
  ["COc1ccc(-c2coc3cc(O)ccc3c2=O)c(OC)c1", 1.01],
  ["COc1ccc(-c2coc3cc(OC)ccc3c2=O)cc1", 0.947],
  ["COc1ccccc1-c1coc2cc(O)ccc2c1=O", 1],
  ["COc1ccc(-c2coc3cc(O)ccc3c2=O)cc1", 0.973],
  ["Cc1ccc(S(=O)(=O)NC(=O)NN2CCCCCC2)cc1", 0.983]
]}
